Data origin: patent US6610846B1

Catalogue of melting point values
endpoint: melting point

molecule="O=C(O)c1ccc(NC(=O)C(CC2CCCC2)c2ccc(Cl)cc2)nc1 (stereo not drawn)" valueobserved="206 to 208 °C"
molecule="CS(=O)(=O)c1ccc(C(CC2CCCC2)C(=O)Nc2ccncn2)cc1C#N (stereo not drawn)" valueobserved="79 to 84 °C"
molecule="CS(=O)(=O)c1ccc(C(CC2CCCC2)C(=O)Nc2ccccn2)cc1Br (stereo not drawn)" valueobserved="99 to 101 °C"
molecule="O=C(Nc1ccccn1)C(CC1CCCC1)c1ccc(S(=O)(=O)C(F)(F)F)cc1 (stereo not drawn)" valueobserved="151 to 153 °C"
molecule="O=C(Nc1nccs1)C(CC1CCCC1)c1ccc(Cl)c([N+](=O)[O-])c1 (stereo not drawn)" valueobserved="68 to 72 °C"
molecule="O=C(Nc1nccs1)C(CC1CCCC1)c1cccc(O)c1 (stereo not drawn)" valueobserved="177 to 179 °C"
molecule="CS(=O)(=O)c1ccc(C(CC2CCCC2)C(=O)Nc2nccs2)cc1[N+](=O)[O-] (stereo not drawn)" valueobserved="121 to 124 °C"
molecule="O=C(Nc1cccnn1)C(CC1CCCC1)c1ccc(Cl)c(Cl)c1 (stereo not drawn)" valueobserved="70 to 71 °C"
molecule="CCOC(=O)Cc1csc(NC(=O)C(CC2CCCC2)c2ccc(S(=O)(=O)C(F)(F)F)cc2)n1 (stereo not drawn)" valueobserved="48 to 51 °C"

###

Examples of compounds with documented melting point follow.
endpoint: melting point

compound="Cc1ccc(NC(=O)C(CC2CCCC2)c2ccc(S(C)(=O)=O)cc2)nc1 (stereo not drawn)" valueobserved="184 to 185 °C"
compound="O=C(Nc1ncco1)C(CC1CCCC1)c1ccc(Cl)c(Cl)c1 (stereo not drawn)" valueobserved="134 to 136 °C"
compound="CS(=O)(=O)c1ccc(C(CC2CCCC2)C(=O)Nc2ccccn2)cc1C(F)(F)F (stereo not drawn)" valueobserved="86 to 89 °C"
compound="O=C(Nc1nccs1)C(CC1CCCC1)c1ccc(Br)cc1 (stereo not drawn)" valueobserved="201 to 202 °C"
compound=Cc1cnc(NC(=O)[C@H](CC2CCCC2)c2ccc(S(C)(=O)=O)cc2)s1 valueobserved="81 to 85 °C"
compound="O=C(Nc1cnccn1)C(CC1CCCC1)c1ccc(Cl)c(Cl)c1 (stereo not drawn)" valueobserved="46.5 to 51.3 °C"
compound="O=C(Nc1nccs1)C(CC1CCCC1)c1ccc(O)cc1 (stereo not drawn)" valueobserved="198 to 200 °C"
compound="CSc1ccc(C(CC2CCCC2)C(=O)Nc2ccc([N+](=O)[O-])cn2)cc1C(F)(F)F (stereo not drawn)" valueobserved="109 to 110 °C"
compound="O=C(Nc1ccc(CO)cn1)C(CC1CCCC1)c1ccc(Cl)cc1 (stereo not drawn)" valueobserved="60 to 62 °C"
compound="CS(=O)(=O)c1ccc(C(CC2CCCC2)C(=O)Nc2ccc(CO)cn2)cc1 (stereo not drawn)" valueobserved="74 to 77 °C"
compound=Cc1csc(NC(=O)[C@H](CC2CCCC2)c2ccc(S(C)(=O)=O)cc2)n1 valueobserved="83 to 87 °C"
compound="CS(=O)(=O)c1ccc(C(CC2CCCC2)C(=O)Nc2ccccn2)cc1 (stereo not drawn)" valueobserved="172 to 173 °C"
compound="O=C(Nc1ncc[nH]1)C(CC1CCCC1)c1ccc(Cl)c(Cl)c1 (stereo not drawn)" valueobserved="58 to 60 °C"
compound="O=C(Nc1ccccn1)C(CC1CCCC1)c1ccc(SC(F)(F)F)cc1 (stereo not drawn)" valueobserved="101 to 102 °C"
compound="O=C(O)c1cnc(NC(=O)C(CC2CCCC2)c2ccc(Cl)c(Cl)c2)s1 (stereo not drawn)" valueobserved="269 to 270 °C"
compound="CS(=O)(=O)c1ccc(C(CC2CCCC2)C(=O)Nc2ncc(Br)s2)cc1 (stereo not drawn)" valueobserved="73 to 75 °C"
compound="O=C(Nc1ncc(CO)s1)C(CC1CCCC1)c1ccc(Cl)c(Cl)c1 (stereo not drawn)" valueobserved="128 to 130 °C"
compound=CSc1ccc([C@@H](CC2CCCC2)C(=O)Nc2cnccn2)cc1 valueobserved="128 to 130 °C"
